Tested on: murine gastric organoid diffuse (Cdh1 fl/fl; Apc fl/fl)
Assay: IC50 (viability, PrestoBlue) (log10 nM)
Settings: exposure time: 72 h
Where a name gives a salt, the structure may show the parent alone.
Give measured IC50 (log10 nM) for each item. Keep answers brief.
Write no unit; give the number alone.

Input Cc1c(N)nc([C@H](CC(N)=O)NC[C@H](N)C(N)=O)nc1C(=O)N[C@H](C(=O)N[C@H](C)[C@@H](O)[C@H](C)C(=O)N[C@H](C(=O)NCCc1nc(-c2nc(C(=O)NCCC[S+](C)C)cs2)cs1)[C@@H](C)O)[C@@H](OC1OC(CO)C(O)C(O)C1OC1OC(CO)C(O)C(OC(N)=O)C1O)c1cnc[nH]1 (stereo not given in full) , output reported IC50 (log10 nM). 3.57

Input CC[C@]1(O)C[C@H]2CN(CCc3c([nH]c4ccccc34)[C@@](C(=O)OC)(c3cc4c(cc3OC)N(C=O)[C@H]3[C@@](O)(C(=O)OC)[C@H](OC(C)=O)[C@]5(CC)C=CCN6CC[C@]43[C@@H]65)C2)C1 [Vincristine sulfate] , output reported IC50 (log10 nM). 1.89

Input Cc1[nH]c2ccccc2c1CCNCc1ccc(/C=C/C(=O)NO)cc1 , output reported IC50 (log10 nM). 2.82

Input O=C(Nc1cccc(Cl)c1)Nc1ncc(CCNc2ncnc3ccsc23)s1 , output reported IC50 (log10 nM). 4.02

----------
Test system: murine normal gastric organoid
Test: IC50 (viability, PrestoBlue) (log10 nM)
Details: exposure time: 72 h
Decision: IC50 (log10 nM) beneath 3 gives criterion met; IC50 (log10 nM) meeting or exceeding 3 gives criterion not met.

State whether 3 exceeds IC50 (log10 nM) recorded for COc1cccc2c1C(=O)c1c(O)c3c(c(O)c1C2=O)C[C@@](O)(C(=O)CO)C[C@@H]3O[C@H]1C[C@H](N)[C@H](O)[C@H](C)O1 . criterion met

State whether 3 exceeds IC50 (log10 nM) recorded for C1=N/C2=N/c3ccc(OCCN4CCCC4)c(c3)COC/C=C/COCc3cccc(c3)C(=C1)N2 . criterion not met

State whether 3 exceeds IC50 (log10 nM) recorded for CO[C@H]1C[C@@H]2CC[C@@H](C)[C@@](O)(O2)C(=O)C(=O)N2CCCC[C@H]2C(=O)O[C@H]([C@H](C)C[C@@H]2CC[C@@H](OCCO)[C@H](OC)C2)CC(=O)[C@H](C)/C=C(\C)[C@@H](O)[C@@H](OC)C(=O)[C@H](C)C[C@H](C)/C=C/C=C/C=C/1C . criterion not met

State whether 3 exceeds IC50 (log10 nM) recorded for Nc1ccn([C@@H]2O[C@H](CO)[C@@H](O)C2(F)F)c(=O)n1 . criterion met

State whether 3 exceeds IC50 (log10 nM) recorded for O=C(O)CCCc1ccc(N(CCCl)CCCl)cc1 . criterion not met

State whether 3 exceeds IC50 (log10 nM) recorded for C#Cc1cccc(Nc2ncnc3cc(OCCOC)c(OCCOC)cc23)c1 . criterion met

----------
Test system: murine gastric organoid WNT-activated (Apc fl/fl; Tp53 R172H)
Experiment: IC50 (viability, PrestoBlue) (log10 nM)
Details: exposure time: 72 h
attribute-measured: IC50 (log10 nM)
Write no unit; give the number alone.

Input CC1=C(/C=C/C(C)=C/C=C/C(C)=C/C(=O)O)C(C)(C)CCC1 , output reported IC50 (log10 nM). 3.82

Input COC1=CC(c2cc3ccccc3[nH]2)=N/C1=C\c1[nH]c(C)cc1C , output reported IC50 (log10 nM). 2.26

Input COc1cccc2c1C(=O)c1c(O)c3c(c(O)c1C2=O)C[C@@](O)(C(=O)CO)C[C@@H]3O[C@H]1C[C@H](N)[C@H](O)[C@H](C)O1 , output reported IC50 (log10 nM). 2.2

Input CC(C)[C@H](O)C(=O)N[C@@H](C)C(=O)N[C@@H]1C(=O)N(C)CCc2ccccc21 , output reported IC50 (log10 nM). 2.37

Input CN(C)CCN1C(=O)c2cccc3cc(N)cc(c23)C1=O [Amonafide] , output reported IC50 (log10 nM). 2.39

Input Oc1ncc(N(CCCl)CCCl)c(O)n1 , output reported IC50 (log10 nM). 3.68

Input COc1ccc(/C=C\c2cc(OC)c(OC)c(OC)c2)cc1OP(=O)(O)O [Fosbretabulin disodium] , output reported IC50 (log10 nM). 1.85

Input C[C@]1(O)C[C@@H](c2nc(-c3ccc4ccc(-c5ccccc5)nc4c3)c3c(N)nccn32)C1 , output reported IC50 (log10 nM). 2.69

Input CO[C@@]12[C@H](COC(N)=O)C3=C(C(=O)C(C)=C(N)C3=O)N1C[C@@H]1N[C@@H]12 , output reported IC50 (log10 nM). 2.7

Input COc1c(OCCCN2CCOCC2)ccc2c1N=C(NC(=O)c1cnc(N)nc1)N1CCN=C21 , output reported IC50 (log10 nM). 1.96

Input N.N.[Cl][Pt][Cl] [Cisplatin] , output reported IC50 (log10 nM). 3.59

Input CCOc1cc2ncc(C#N)c(Nc3ccc(OCc4ccccn4)c(Cl)c3)c2cc1NC(=O)/C=C/CN(C)C , output reported IC50 (log10 nM). 2.94

Input Nc1nc(Cl)nc2c1ncn2[C@H]1C[C@H](O)[C@@H](CO)O1 , output reported IC50 (log10 nM). 3.27

Input COc1cc2/c(=N/c3ccc(Br)cc3F)nc[nH]c2cc1OCC1CCN(C)CC1 , output reported IC50 (log10 nM). 2.64

Input N#CCNC(=O)c1ccc(-c2ccnc(Nc3ccc(N4CCOCC4)cc3)n2)cc1 , output reported IC50 (log10 nM). 4.05

Input COc1cc(Nc2ncc(F)c(Nc3ccc4c(n3)N(COP(=O)(O)O)C(=O)C(C)(C)O4)n2)cc(OC)c1OC [R788 disodium hexahydrate] , output reported IC50 (log10 nM). 2.5

Input C#Cc1cccc(Nc2ncnc3cc(OCCOC)c(OCCOC)cc23)c1 , output reported IC50 (log10 nM). 2.67
